System: FLAP (5-lipoxygenase activating protein)
ASSAY_EXPLANATION: In vitro binding test: displacement of [3H]-7-chloro-3-(5-((3-fluoropyridin-2-yl)methoxy)-2-methylphenyl)-3,4-dihydroquinazolin-2(1H)-one from Sf9 microsome fractions
Design: species or system human and mouse
CONDITION_INFO: Sf9 microsome fractions expressing FLAP; 100% = radioligand binding with 10 μM sodium 3-(3-(tert-butylsulfanyl)-1-(4-chlorobenzyl)-5-isopropyl-1H-indol-2-yl)-2,2-dimethylpropanoate, 0% = DMSO; test compound concentration not given
MEASURE_NAME: inhibitory rate (%)

{"MOLECULE": "CC(C)(O)c1ccc2c(c1)NC(=O)N(c1cc(OCc3c(F)cccc3F)ccc1Cc1ccccn1)C2", "TARGET_UNDER_TEST": "FLAP (5-lipoxygenase activating protein)", "MEASURE_NAME": "inhibitory rate (%)", "MEASURE_UNIT": "%", "RECORDED_VALUE": 50}
{"MOLECULE": "Cn1cc(-c2ncc(C3CC3)c3c2NC(=O)N(c2cc4c(cc2Cl)CCC(c2ncccc2F)O4)C3)cn1 (centres unmarked)", "TARGET_UNDER_TEST": "FLAP (5-lipoxygenase activating protein)", "MEASURE_NAME": "inhibitory rate (%)", "MEASURE_UNIT": "%", "RECORDED_VALUE": 98}
{"MOLECULE": "O=C1Nc2cn(CC3CC3)nc2CN1c1cc(OCc2ncccc2F)ccc1Br", "TARGET_UNDER_TEST": "FLAP (5-lipoxygenase activating protein)", "MEASURE_NAME": "inhibitory rate (%)", "MEASURE_UNIT": "%", "RECORDED_VALUE": 105}
{"MOLECULE": "Cc1ccc(OCc2ncccc2F)cc1N1Cc2c(F)cccc2NC1=O", "TARGET_UNDER_TEST": "FLAP (5-lipoxygenase activating protein)", "MEASURE_NAME": "inhibitory rate (%)", "MEASURE_UNIT": "%", "RECORDED_VALUE": 107}
{"MOLECULE": "O=c1[nH]c2ccccc2c(=O)n1-c1cc2c(cc1Cl)CCC(c1ncccc1F)O2 (centres unmarked)", "TARGET_UNDER_TEST": "FLAP (5-lipoxygenase activating protein)", "MEASURE_NAME": "inhibitory rate (%)", "MEASURE_UNIT": "%", "RECORDED_VALUE": 95}

----------
Tested on: FLAP (5-lipoxygenase activating protein)
ASSAY_EXPLANATION: In vitro binding test: displacement of [3H]-7-chloro-3-(5-((3-fluoropyridin-2-yl)methoxy)-2-methylphenyl)-3,4-dihydroquinazolin-2(1H)-one from Sf9 microsome fractions
Set-up: species or system human and mouse
CONDITION_INFO: Sf9 microsome fractions expressing FLAP; 100% = radioligand binding with 10 μM sodium 3-(3-(tert-butylsulfanyl)-1-(4-chlorobenzyl)-5-isopropyl-1H-indol-2-yl)-2,2-dimethylpropanoate, 0% = DMSO; test compound concentration not given
Classify by measured inhibitory rate (%): 1 if it is equal to or exceeds 90%, 0 if it is smaller.

{"MOLECULE": "Cc1cc2c(cc1N1Cc3c(cc(N4CCOC4=O)nc3C3CC3)NC1=O)OC(c1ncccc1F)CC2 (stereo not drawn)", "TARGET_UNDER_TEST": "FLAP (5-lipoxygenase activating protein)", "DISCRETE_LABEL": 1}
{"MOLECULE": "Cn1nccc1-c1nccc2c1CN(c1cc3c(cc1Cl)CCC(c1ncccc1F)O3)C(=O)N2 (stereo not drawn)", "TARGET_UNDER_TEST": "FLAP (5-lipoxygenase activating protein)", "DISCRETE_LABEL": 1}
{"MOLECULE": "O=C1Nc2cc(CO)ccc2CN1c1cc(OCc2c(F)cccc2F)ccc1Cc1ccccc1", "TARGET_UNDER_TEST": "FLAP (5-lipoxygenase activating protein)", "DISCRETE_LABEL": 0}
{"MOLECULE": "Cc1ccc(OCc2ncccc2F)cc1-n1c(=O)[nH]c2c(Cl)cccc2c1=O", "TARGET_UNDER_TEST": "FLAP (5-lipoxygenase activating protein)", "DISCRETE_LABEL": 1}
{"MOLECULE": "COC(=O)c1ccc2c(=O)n(-c3cc(OCc4c(F)cccc4F)ccc3C)c(=O)[nH]c2c1", "TARGET_UNDER_TEST": "FLAP (5-lipoxygenase activating protein)", "DISCRETE_LABEL": 1}
{"MOLECULE": "COC(=O)c1ccc2c(c1)NC(=O)N(c1cc(OCc3csc(C)n3)ccc1C)C2", "TARGET_UNDER_TEST": "FLAP (5-lipoxygenase activating protein)", "DISCRETE_LABEL": 0}

----------
Test system: FLAP (5-lipoxygenase activating protein)
ASSAY_EXPLANATION: In vitro binding test: displacement of [3H]-7-chloro-3-(5-((3-fluoropyridin-2-yl)methoxy)-2-methylphenyl)-3,4-dihydroquinazolin-2(1H)-one from Sf9 microsome fractions
Set-up: species or system human and mouse
CONDITION_INFO: Sf9 microsome fractions expressing FLAP; 100% = radioligand binding with 10 μM sodium 3-(3-(tert-butylsulfanyl)-1-(4-chlorobenzyl)-5-isopropyl-1H-indol-2-yl)-2,2-dimethylpropanoate, 0% = DMSO; test compound concentration not given
Recorded measurements of inhibitory rate (%), one per entry

{"COMPOUND": "COc1cc2c(c(C3CC3)n1)CN(c1cc3c(cc1Cl)CCC(c1ncccc1F)O3)C(=O)N2 (centres unmarked)", "inhibitory rate (%)": 102}
{"COMPOUND": "Cc1ccc(OCc2ncccc2F)cc1N1Cc2c(Cl)cccc2N(C)C1=O [Example 269]", "inhibitory rate (%)": 111}
{"COMPOUND": "COC(=O)c1cc2c(c(C3CC3)n1)CN(c1cc3c(cc1Cl)CCC(c1ncccc1F)O3)C(=O)N2 (centres unmarked)", "inhibitory rate (%)": 101}
{"COMPOUND": "Cc1ccc(OCc2c(F)cccc2F)cc1N1Cc2c(CO)cccc2NC1=O", "inhibitory rate (%)": 97}
{"COMPOUND": "Cc1ccc(OCc2ncccc2Cl)cc1N1Cc2ccccc2NC1=O", "inhibitory rate (%)": 103}
{"COMPOUND": "Cc1ccc(OCc2c(F)cccc2F)cc1N1Cc2ccc(CN)cc2NC1=O", "inhibitory rate (%)": 81}
{"COMPOUND": "Cc1cc2c(cc1N1Cc3cnccc3NC1=O)OC(c1ncccc1F)CC2 (centres unmarked)", "inhibitory rate (%)": 99}
{"COMPOUND": "Cc1ccc(OCc2ncccc2F)cc1-n1c(=O)[nH]c2cccnc2c1=O", "inhibitory rate (%)": 90}
{"COMPOUND": "O=C1Nc2ccccc2CN1c1cc(OCc2ncccc2F)ccc1CN1CCCC1", "inhibitory rate (%)": 74}
{"COMPOUND": "COCCN1C(=O)N(c2cc(OCc3ncccc3F)ccc2C)Cc2c(Cl)cccc21", "inhibitory rate (%)": 100}
{"COMPOUND": "O=c1[nH]c2ccc(Br)c(Cl)c2c(=O)n1-c1cc(OCc2ncccc2F)ccc1Cl", "inhibitory rate (%)": 108}
{"COMPOUND": "Cn1cc(-c2ncc(Cl)c3c2NC(=O)N(c2cc4c(cc2Cl)CCC(c2ncccc2F)O4)C3)cn1 (centres unmarked)", "inhibitory rate (%)": 101}
{"COMPOUND": "Cc1ccc(OCc2ncccc2F)cc1-n1c(=O)[nH]c2ccncc2c1=O", "inhibitory rate (%)": 106}
{"COMPOUND": "Cc1cc2c(cc1N1Cc3c(cc(C4CC4)nc3-c3ccnn3C)NC1=O)OC(c1ncccc1F)CC2 (centres unmarked)", "inhibitory rate (%)": 91}
{"COMPOUND": "O=C(c1cc2c(c(C3CC3)n1)CN(c1cc3c(cc1Cl)CCC(c1ncccc1F)O3)C(=O)N2)N1CC(F)C1 (centres unmarked)", "inhibitory rate (%)": 104}
{"COMPOUND": "Cc1cc2c(cc1N1Cc3c(Cl)cncc3NC1=O)OC(c1ncccc1F)CC2 (centres unmarked)", "inhibitory rate (%)": 109}
{"COMPOUND": "O=C1Nc2cc(OC(F)F)nc(C3CC3)c2CN1c1cc2c(cc1Cl)CC[C@H](c1ncccc1F)O2", "inhibitory rate (%)": 102}
{"COMPOUND": "O=C1Nc2cc(-c3ccn[nH]3)nc(C3CC3)c2CN1c1cc2c(cc1Cl)CCC(c1ncccc1F)O2 (centres unmarked)", "inhibitory rate (%)": 106}
{"COMPOUND": "Cc1ccc(OCc2ncccc2F)cc1N1Cc2ccc(C(=O)Nc3ccccn3)cc2NC1=O", "inhibitory rate (%)": 100}
{"COMPOUND": "Cc1cc2c(cc1N1Cc3c(Cl)cnc(-c4c(C)noc4C)c3NC1=O)OC(c1ncccc1F)CC2 (centres unmarked) [Example 10]", "inhibitory rate (%)": 94}
{"COMPOUND": "COc1cccnc1C1CCc2cc(Cl)c(N3Cc4c(ccnc4C4CC4)NC3=O)cc2O1 (centres unmarked)", "inhibitory rate (%)": 94}
{"COMPOUND": "Cc1cc2c(cc1N1Cc3c(Cl)cc(C(=O)NC4CC4)cc3NC1=O)OC(c1ncccc1F)CC2 (centres unmarked)", "inhibitory rate (%)": 101}
{"COMPOUND": "Cc1ccc(OCc2ncccc2F)cc1-n1c(=O)[nH]c2c(OCC3CC3)cccc2c1=O", "inhibitory rate (%)": 106}
